# ASSAY_TEXT: Cmax in ICR mouse at 10 mg/kg, po measured upto 24 hrs by LC-MS/MS analysis
# Assay type: ADME, organism-based
# Set-up: dose 10 mg/kg, route oral
# ASSAY_CONTEXT: in vivo
PARAMETER: Cmax (ng/mL)
Quick note: give the figure in ng/mL, leave out the unit.

What does the data say about its Cmax? Entry: "O=C(O)c1ccccc1Nc1cccc(Cl)c1-c1ccc2c(c1)CCO2"
3430

----------
# ASSAY_TEXT: Tmax in ICR mouse at 10 mg/kg, po measured upto 24 hrs by LC-MS/MS analysis
# Format: ADME, organism-based
# ASSAY_CONTEXT: in vivo
PARAMETER: Tmax

# lookup: Tmax of "O=C(O)c1ccccc1Nc1cccc(Cl)c1-c1ccc2c(c1)CCO2"
15 min

These data points were gathered from ChEMBL document CHEMBL4602698.
